Molecular target: T1, recombinant human activated Factor VII (FVIIa) (human, UniProt P08709 61-212; P08709 213-466, ten glutamate residues of the Gla domain may be gamma-carboxylated)
T1 construct: chains tethered by a disulfide bond; also called Factor VIIa; rFVIIa
T1 sequence 1: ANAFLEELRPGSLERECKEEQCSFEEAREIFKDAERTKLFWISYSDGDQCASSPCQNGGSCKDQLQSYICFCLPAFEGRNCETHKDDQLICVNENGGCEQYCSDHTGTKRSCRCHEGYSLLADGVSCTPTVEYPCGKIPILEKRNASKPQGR
T1 sequence 2: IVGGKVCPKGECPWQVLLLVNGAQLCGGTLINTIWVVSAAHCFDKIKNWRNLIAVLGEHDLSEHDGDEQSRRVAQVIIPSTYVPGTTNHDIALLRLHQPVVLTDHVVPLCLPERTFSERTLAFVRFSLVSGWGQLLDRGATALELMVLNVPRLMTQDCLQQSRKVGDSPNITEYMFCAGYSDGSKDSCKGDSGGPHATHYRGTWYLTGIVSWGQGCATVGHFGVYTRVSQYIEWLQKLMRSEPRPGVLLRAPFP
Assay: BLI (Fortebio)
Flag rule - Kd less than 5 nM flags Fulfilled; the remaining entries get Not fulfilled.

Here's what some known entries look like.
VH SEQ ID NO 618 / VL SEQ ID NO 494 (antibody, IgG4, V domains shown, humanized 11F2; IgG4 S228P/kappa) VH: QVQLQESGPGLVKPSQTLSLTCTVSGYSISSDSAWSWIRQFPGKGLEWIGYIQYSGSTNYNPSLKSRVTISRDTSKNQFSLKLSSVTAADTAVYYCARSVNYYGNSFAVGPWGQGTLVTVSS VL: EIVLTQSPATLSLSPGERATLSCRASQGVSDYLHWYQQKPGQAPRLLIKYASQPATGIPARFSGSGSGTDFTLTISSLEPEDVAVYYCQNGHSFPLTFGQGTKLEIK; Fulfilled
VH SEQ ID NO 602 / VL SEQ ID NO 390 (antibody, IgG4, V domains shown, humanized 11F2; IgG4 S228P/kappa) VH: QVQLQESGPGLVKPSQTLSLTCTVSGGSISSDSAWSWIRQPPGKGLEWIGYIQYSGSTNYNPSLKSRVTISVDTSKNQFSLKLSSVTAADTAVYYCARSVNYYGNSFAVGYWGQGTLVTVSS VL: EIVLTQSPATLSLSPGERATLSCRASQGVSDYLAWYQQKPGEAPRLLIKYASQPATGIPARFSGSGSGTDFTLTISSLEPEDFAVYYCQNGHSFPLTFGQGTKLEIK; Not fulfilled
VH SEQ ID NO 602 / VL SEQ ID NO 350 (antibody, IgG4, V domains shown, humanized 11F2; IgG4 S228P/kappa) VH: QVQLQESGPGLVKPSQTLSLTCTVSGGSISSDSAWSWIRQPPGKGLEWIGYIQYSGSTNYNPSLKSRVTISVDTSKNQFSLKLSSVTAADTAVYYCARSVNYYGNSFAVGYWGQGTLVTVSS VL: EIVLTQSPATLSLSPGERATLSCRASQGISDYLHWYQQKPGQAPRLLIKYTSQPATGIPARFSGSGSGTDFTLTISSLEPEDFAVYYCQNGHSFPLTFGAGTKLELK; Not fulfilled

Consider the additional binder presented here.
// query Regarding VH SEQ ID NO 570 / VL SEQ ID NO 350 (antibody, IgG4, V domains shown, humanized 11F2; IgG4 S228P/kappa) VH: QVQLQESGPGLVKPSDTLSLTCAVSGYSISSDSAWSWIRQPPGKGLEWIGYIQYSGSTNYNPSLKSRVTMSRDTSKNQFSLKLSSVTAADTAVYYCARSVNYYGNSFAVGPWGQGTLVTVSS VL: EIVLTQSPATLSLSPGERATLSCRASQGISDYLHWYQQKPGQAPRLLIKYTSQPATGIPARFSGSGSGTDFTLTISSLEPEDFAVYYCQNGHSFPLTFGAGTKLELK , kindly confirm whether its Kd is beneath 5 nM.
// result Fulfilled
